Test system: human maximum recommended daily dose, FDA database
Assay: DSSTox (FDAMDD) FDA Maximum (Recommended) Daily Dose Database
Details: TherapeuticCategory: immunosuppressant; stronger effect = lower value
EXPERIMENTAL READOUT: maximum recommended daily dose (mmol/kg-bw/day)

| RECORD SMILES | OBS VALUE |
| --- | --- |
| CO[C@H]1C[C@@H]2CC[C@@H](C)[C@@](O)(O2)C(=O)C(=O)N2CCCC[C@H]2C(=O)O[C@H]([C@H](C)C[C@@H]2CC[C@@H](O)[C@H](OC)C2)CC(=O)[C@H](C)/C=C(\C)[C@@H](O)[C@@H](OC)C(=O)[C@H](C)C[C@H](C)/C=C/C=C/C=C/1C | 0.000148 |

###

Test system: human maximum recommended daily dose, FDA database
Experiment: DSSTox (FDAMDD) FDA Maximum (Recommended) Daily Dose Database
Conditions: TherapeuticCategory: food additive; stronger effect = lower value
EXPERIMENTAL READOUT: maximum recommended daily dose (mmol/kg-bw/day)

| RECORD SMILES | OBS VALUE |
| --- | --- |
| O=c1c(CO)c/c(=N/Nc2ccc(S(=O)(=O)O)c3ccccc23)c(=O)/c1=N/Nc1ccc(S(=O)(=O)O)c2ccccc12 | 0.0023 |

###

Tested on: human maximum recommended daily dose, FDA database
Experiment: DSSTox (FDAMDD) FDA Maximum (Recommended) Daily Dose Database
Conditions: TherapeuticCategory: antimigraine; stronger effect = lower value
Recorded maximum recommended daily dose (mmol/kg-bw/day) by entry
EXPERIMENTAL READOUT: maximum recommended daily dose (mmol/kg-bw/day)

| COMPOUND | TARGET | OBS VALUE |
| --- | --- | --- |
| CC[C@@H](CO)NC(=O)[C@@H]1C=C2c3cccc4c3c(cn4C)C[C@H]2N(C)C1 | human maximum recommended daily dose, FDA database | 0.000283 |
| CNS(=O)(=O)Cc1ccc2[nH]cc(CCN(C)C)c2c1 | human maximum recommended daily dose, FDA database | 0.000677 |
| CC(CN1c2ccccc2Sc2ccc(S(=O)(=O)N(C)C)cc21)N(C)C (stereo not given) | human maximum recommended daily dose, FDA database | 0.0034 |
| CN(C)CCc1c[nH]c2ccc(Cn3cncn3)cc12 | human maximum recommended daily dose, FDA database | 0.00186 |
| CN[C@@H]1CCc2[nH]c3ccc(C(N)=O)cc3c2C1 | human maximum recommended daily dose, FDA database | 0.000514 |

###

System: human maximum recommended daily dose, FDA database
Assay: DSSTox (FDAMDD) FDA Maximum (Recommended) Daily Dose Database
Conditions: TherapeuticCategory: vasodilator; stronger effect = lower value
Flag rule - maximum recommended daily dose (mmol/kg-bw/day) less than 0.004 flags label 1; the remaining entries get label 0.

| MOLECULE | GROUP LABEL |
| --- | --- |
| CCN(CC)CCOC(=O)C(Cc1cccc2ccccc12)CC1CCCO1 (stereo unspecified) | label 0 |
| CC(CCc1ccccc1)NC(C)C(O)c1ccc(O)cc1 (stereo unspecified) | label 1 |
| CC(=O)CCCCn1c(=O)c2c(ncn2C)n(C)c1=O | label 0 |
| CN(C)CCCOC1(Cc2ccccc2)CCCCCC1 | label 0 |
| CC(COc1ccccc1)NC(C)C(O)c1ccc(O)cc1 (stereo unspecified) | label 0 |
| CNCCc1ccccn1 | label 0 |
